biological target: UniProt P25090; experiment: Ca2+ mobilization in HL-60 cells transfected with FPR2; conditions: read-out: Ca2+ Mobilization EC50, FPR2; HL-60-FPR2 cells; mean of three independent experiments; N.A. = no activity, limits efficacy > 20 % and EC50 < 50 μM
Sequence (P25090 whole entry): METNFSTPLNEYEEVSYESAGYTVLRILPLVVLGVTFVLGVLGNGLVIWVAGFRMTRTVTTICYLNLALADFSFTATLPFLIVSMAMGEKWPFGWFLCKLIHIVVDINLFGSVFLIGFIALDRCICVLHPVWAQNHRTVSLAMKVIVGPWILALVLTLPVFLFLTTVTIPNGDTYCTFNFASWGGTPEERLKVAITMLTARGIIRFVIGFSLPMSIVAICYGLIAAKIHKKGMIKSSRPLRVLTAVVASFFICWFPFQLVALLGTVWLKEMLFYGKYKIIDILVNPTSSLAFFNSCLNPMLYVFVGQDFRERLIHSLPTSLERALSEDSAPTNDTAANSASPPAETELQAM
observed property: EC50 (µM)
Write the answer as a number in µM, unit excluded.

Query: // EC50 lookup, key: C[C@@H]1CC(c2ccccc2)=NN(CC(=O)Nc2ccc(Br)cc2)C1=O [R-(+)-4a]
Result: 10

Query: // EC50 lookup, key: C[C@H]1CC(c2ccccc2)=NN(CC(=O)Nc2ccc(Br)cc2)C1=O [S-(-)-4a]
Result: 10.7

Query: // EC50 lookup, key: CC1CC(c2ccccc2)=NN(CC(=O)Nc2ccc(Br)cc2)C1=O (racemic) [(±)-4a]
Result: 7
